Molecular target: Human immunodeficiency virus type 1 reverse transcriptase (Human immunodeficiency virus 1)
Experiment: Inhibition of HIV1 recombinant reverse transcriptase expressed in Escherichia coli using poly(rC)-oligo(dG) template
assayMetric: pEC50
Lab note — pEC50 values are minus log10 of concentrations in M.

Query (compound): C[C@@H]1[C@@]23CC[C@H]4[C@@](C)(CC[C@@]5(C)[C@@H]6C[C@](C)(C(=O)O)CC[C@]6(C)CC[C@]45C)[C@@H]2CC[C@@]1(O)OC3 [SALASPERMIC ACID] ; field requested: pEC50 4.50
